- assay-target: b-Raf (V600E) (Homo sapiens (Human), UniProt P15056, V600E)
- Sequence (P15056 whole entry V600E): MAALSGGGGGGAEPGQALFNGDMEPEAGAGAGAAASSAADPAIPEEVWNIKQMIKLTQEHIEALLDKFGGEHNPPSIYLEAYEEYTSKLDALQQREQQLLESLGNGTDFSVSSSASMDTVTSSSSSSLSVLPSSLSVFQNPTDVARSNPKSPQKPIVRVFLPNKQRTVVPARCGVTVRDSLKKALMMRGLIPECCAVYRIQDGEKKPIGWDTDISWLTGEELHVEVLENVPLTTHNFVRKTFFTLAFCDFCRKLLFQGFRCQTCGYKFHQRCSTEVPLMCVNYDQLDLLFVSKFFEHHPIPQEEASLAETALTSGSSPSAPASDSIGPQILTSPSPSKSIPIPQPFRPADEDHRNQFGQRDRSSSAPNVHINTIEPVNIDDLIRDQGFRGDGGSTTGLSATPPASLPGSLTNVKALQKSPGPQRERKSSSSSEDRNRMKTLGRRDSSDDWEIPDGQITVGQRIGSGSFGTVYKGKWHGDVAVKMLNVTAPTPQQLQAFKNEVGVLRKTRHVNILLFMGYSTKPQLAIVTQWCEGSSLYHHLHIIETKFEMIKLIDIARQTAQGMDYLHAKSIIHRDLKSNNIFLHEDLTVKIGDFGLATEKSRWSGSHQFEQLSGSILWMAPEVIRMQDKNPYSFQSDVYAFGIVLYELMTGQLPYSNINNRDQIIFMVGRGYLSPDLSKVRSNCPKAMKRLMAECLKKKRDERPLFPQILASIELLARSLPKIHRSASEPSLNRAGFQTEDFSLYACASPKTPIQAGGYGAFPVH
- study-conditions: read-out: b-Raf IC-50; AlphaScreen, 60 min pre-incubation, reaction 3 hours at room temperature
assay-readout: IC50 (nM)

molecule: Cc1ncc(NC(=O)c2ccnc(C(C)(F)F)c2)cc1-c1cnc(OC(C)C)c(N2CCOCC2)c1 [Example 952]
assay-readout: IC50
experimental-result: 1.98
--
molecule: Cc1ccc(NC(=O)c2cncc(C(F)(F)F)c2)cc1-c1cc(N2CCOCC2)c(=O)n(C)c1 [Example 904]
assay-readout: IC50
experimental-result: 2.01
--
molecule: Cc1ccc(NC(=O)c2ccnc(C(F)(F)F)c2)cc1-c1cc(N2CCNCC2)nc(N2CCOCC2)c1 [Example 1128]
assay-readout: IC50
experimental-result: 2.16
--
molecule: Cc1ccc(NC(=O)c2ccnc(C3(C#N)CC3)c2)cc1-c1cc(N2CCOCC2)nc(N2CC(O)C2)c1 [Example 1071]
assay-readout: IC50
experimental-result: 2.08
--
molecule: Cc1ncc(NC(=O)c2cccc(C(F)(F)F)c2)cc1-c1cc(N2CCOCC2)nc(N2CCC(O)C2)c1 (stereo not shown) [Example 1131]
assay-readout: IC50
experimental-result: 2.34
--
molecule: Cc1ccc(NC(=O)c2cnnc(C(F)(F)F)c2)cc1-c1cc(NCCO)nc(N2CCOCC2)c1 [Example 1047]
assay-readout: IC50
experimental-result: 3.95
--
molecule: Cc1ncc(NC(=O)c2cccc(C(F)(F)F)c2)cc1-c1cc(N2CCOCC2)c2nccn2c1 [Example 883]
assay-readout: IC50
experimental-result: 1.7

Values from patent US9694016B2
